Test system: 621-103 (TSC2-rescued)
test.details: relative viability vs DMSO; higher = less cytotoxic
run.parameters: 10 µM; serum: 10% FBS; 72 h
endpoint: relative viability (%)
Give the number; % is assumed, so skip it.

Answered cases to consult:
- molecule: "COc1cc2ncnc(Nc3cccc(Br)c3)c2cc1OC"
  assayed.target: "621-103 (TSC2-rescued)"
  value.unit: "%"
  relative viability: 92.1
- molecule: "O=C(NOCC(O)CO)c1cc(Br)c(F)c(F)c1Nc1ccc(I)cc1F (centres undefined)"
  assayed.target: "621-103 (TSC2-rescued)"
  value.unit: "%"
  relative viability: 74.3
- molecule: "COc1cc(Nc2ncc(F)c(Nc3ccc4c(n3)N(COP(=O)(O)O)C(=O)C(C)(C)O4)n2)cc(OC)c1OC"
  assayed.target: "621-103 (TSC2-rescued)"
  value.unit: "%"
  relative viability: 14.7

We next turn to a different molecule, shown below.
Task item: Sample O=C(Cc1ccc(-c2ccc(OCCN3CCOCC3)cc2)cn1)NCc1ccccc1 [KX2-391] — what was its relative viability?
Reply: 34.1

----------
Tested on: 621-103 (TSC2-rescued)
test.details: relative viability vs DMSO; higher = less cytotoxic
run.parameters: 0.01 µM; serum: 10% FBS; 72 h
Structures can show the parent of a compound that is named as a salt.
endpoint: relative viability (%)
// note: answer is a bare numeric in %

- compound: "CC[C@]1(O)C[C@H]2CN(CCc3c([nH]c4ccccc34)[C@@](C(=O)OC)(c3cc4c(cc3OC)N(C=O)[C@H]3[C@@](O)(C(=O)OC)[C@H](OC(C)=O)[C@]5(CC)C=CCN6CC[C@]43[C@@H]65)C2)C1 [Vincristine Sulfate]"
  value.observed: 33.5
- compound: "CC(C[N+](C)(C)C)OC(N)=O (stereo not given) [Bethanechol chloride]"
  value.observed: 105

Task item: Name the recorded relative viability for OC(CNCC(O)C1CCc2cc(F)ccc2O1)C1CCc2cc(F)ccc2O1 (stereo not given) [Nebivolol HCl] .
Reply: 114

Task item: Would you mind telling me what relative viability value was observed for O=C(Nc1c[nH]nc1-c1nc2ccc(CN3CCOCC3)cc2[nH]1)NC1CC1 [AT9283] ?
Reply: 81.5

Task item: Request the reported relative viability associated with Cc1ccc(F)c(NC(=O)Nc2ccc(-c3cccc4[nH]nc(N)c34)cc2)c1 [ABT-869]
Reply: 108

----------
System: 621-102 (TSC2-deficient)
test.details: relative viability vs DMSO (fraction); higher = less cytotoxic
run.parameters: 200 nM; serum: 0.1% FBS; 72 h
With a cut-off of 0.8, any relative viability strictly below it is called YES; any relative viability meeting it or above is called NO.

Example results:
- compound: "CC1=NN(c2ccc(C)c(C)c2)C(=O)/C1=N\\Nc1cccc(-c2cccc(C(=O)O)c2)c1O [Eltrombopag]"
  class.name: "NO"
- compound: "Cc1[nH]c2ccccc2c1CCNCc1ccc(/C=C/C(=O)NO)cc1 [Panobinostat (LBH589)]"
  class.name: "YES"
- compound: "Nc1cccc2c1C(=O)N(C1CCC(=O)NC1=O)C2=O (stereo unspecified) [Pomalidomide]"
  class.name: "NO"

Let us examine a further case.
Task item: Regarding Cn1c(Nc2ccc(C(F)(F)F)cc2)nc2cc(Oc3ccnc(-c4ncc(C(F)(F)F)[nH]4)c3)ccc21 [RAF265] , kindly confirm whether its relative viability is beneath 0.8.
Reply: YES

----------
Tested on: 621-102 (TSC2-deficient)
test.details: relative viability vs DMSO; higher = less cytotoxic
run.parameters: 0.1 µM; serum: 10% FBS; 72 h
endpoint: relative viability (%)
Answer with a number only, understood to be in %.

Solved cases (5 shown):
- compound: "Cc1cc(NS(=O)(=O)c2ccc(N)cc2)no1 [Sulfamethoxazole]"
  assayed.target: "621-102 (TSC2-deficient)"
  value.observed: 97
- compound: "O=C(Nc1ccc(OC(F)(F)F)cc1)c1sccc1NCc1ccnc2ccccc12 [OSI-930]"
  assayed.target: "621-102 (TSC2-deficient)"
  value.observed: 112
- compound: "CCCc1nc2c(C)cc(-c3nc4ccccc4n3C)cc2n1Cc1ccc(-c2ccccc2C(=O)O)cc1 [Telmisartan]"
  assayed.target: "621-102 (TSC2-deficient)"
  value.observed: 105
- compound: "COc1cc(OC)c(NC(=O)Nc2cc(C)on2)cc1Cl"
  assayed.target: "621-102 (TSC2-deficient)"
  value.observed: 89.4
- compound: "FC(F)c1nc2ccccc2n1-c1nc(N2CCOCC2)nc(N2CCOCC2)n1 [ZSTK474]"
  assayed.target: "621-102 (TSC2-deficient)"
  value.observed: 95.7

Task item: relative viability lookup needed for Clc1ccc(Nc2nnc(Cc3ccncc3)c3ccccc23)cc1 [Vatalanib] , thanks.
Reply: 108

Task item: Reported relative viability for CO[C@H]1C[C@@H]2CC[C@@H](C)[C@@](O)(O2)C(=O)C(=O)N2CCCC[C@H]2C(=O)O[C@H]([C@H](C)C[C@@H]2CC[C@@H](OCCO)[C@H](OC)C2)CC(=O)[C@H](C)/C=C(\C)[C@@H](O)[C@@H](OC)C(=O)[C@H](C)C[C@H](C)/C=C/C=C/C=C/1C [Everolimus (RAD001)] : what is it?
Reply: 52.7

Task item: What value of measured relative viability is listed for CCC(C)n1ncn(-c2ccc(N3CCN(c4ccc(OCC5COC(Cn6cncn6)(c6ccc(Cl)cc6Cl)O5)cc4)CC3)cc2)c1=O (stereo unspecified) [Itraconazole (Sporanox)] ?
Reply: 112

Task item: What does the data say about its relative viability? Entry: CNCc1ccc(-c2[nH]c3cc(F)cc4c3c2CCNC4=O)cc1
Reply: 126

----------
Listed here: items and their measured relative viability.
System: 621-102 (TSC2-deficient)
test.details: relative viability vs DMSO; higher = less cytotoxic
run.parameters: 1 µM; serum: 10% FBS; 72 h
Where a name gives a salt, the structure may show the parent alone.
Field: numeric (%). Do not append units.

- compound: "COc1ccc([C@H]2CNC(=O)C2)cc1OC1CCCC1 [S-(+)-Rolipram]"
  relative viability (%): 96.7
- compound: "NC(=O)c1cccc2[nH]c(-c3ccc(C4CCCN4)cc3F)nc12 (stereo not drawn)"
  relative viability (%): 102

Now, please, on to the next compound.
Task item: Dear colleague, I am looking for the recorded relative viability of the following compound: NC12CC3CC(CC(C3)C1)C2 [Amantadine HCl (Symmetrel)]
Reply: 101

----------
System: 621-103 (TSC2-rescued)
test.details: relative viability vs DMSO; higher = less cytotoxic
run.parameters: 0.0001 µM; serum: 10% FBS; 72 h
Structures can show the parent of a compound that is named as a salt.
endpoint: relative viability (%)
Dear colleague, please return just the value in %, with no unit written.

- compound: "Cc1ccc(NC(=O)c2ccc(CN3CCN(C)CC3)cc2)cc1Nc1nc(-c2cccnc2)cs1"
  value.unit: "%"
  relative viability: 104
- compound: "CNC[C@H](O)c1ccc(O)c(O)c1 [Epinephrine bitartrate]"
  value.unit: "%"
  relative viability: 102
- compound: "CCCc1nc(C)c2c(=O)nc(-c3cc(S(=O)(=O)N4CCN(CC)CC4)ccc3OCC)[nH]n12"
  value.unit: "%"
  relative viability: 101

Task item: Which relative viability is reported for this compound? Nc1ncnc2c1c(-c1cnc3[nH]ccc3c1)nn2C1CCCC1
Reply: 104

Task item: Item CC1(C)CNc2cc(NC(=O)c3cccnc3NCc3ccncc3)ccc21 [Motesanib DiPhosphate] has what recorded relative viability?
Reply: 94.7

Task item: Find the recorded relative viability belonging to CC(C)(C)c1[nH]cnc1/C=c1\[nH]c(=O)/c(=C/c2ccccc2)[nH]c1=O and report it.
Reply: 86.9

Task item: Name the recorded relative viability for NCCc1ccc(O)c(O)c1 [Dopamine HCl] .
Reply: 102

----------
Test system: 621-102 (TSC2-deficient)
test.details: relative viability vs DMSO; higher = less cytotoxic
run.parameters: 10 µM; serum: 10% FBS; 72 h
Measured relative viability accompanies every entry in the list below.
Report as a plain number; the unit % is understood.

- compound: "CNC(=O)c1cc(Oc2ccc(NC(=O)Nc3cc(C(C)(C)C)nn3-c3ccc4ncccc4c3)c(F)c2)ccn1"
  value.unit: "%"
  value.observed: 9.8
- compound: "Clc1ccc(C(Cn2ccnc2)OCc2c(Cl)cccc2Cl)c(Cl)c1 (stereo not drawn)"
  value.unit: "%"
  value.observed: 100

Below: the item to evaluate.
Task item: Entry N#CCNC(=O)c1ccc(-c2ccnc(Nc3ccc(N4CCOCC4)cc3)n2)cc1 : reported relative viability = ?
Reply: 73.3

----------
Tested on: 621-102 (TSC2-deficient)
test.details: relative viability vs DMSO; higher = less cytotoxic
run.parameters: 1 µM; serum: 10% FBS; 72 h
Where a name gives a salt, the structure may show the parent alone.
endpoint: relative viability (%)
Respond numerically; units are % and should not be typed.

Worked cases, relative viability given:
- compound: "COC(=O)C1=C(C)NC(C)=C(C(=O)OCCN2CCN(C(c3ccccc3)c3ccccc3)CC2)C1c1cccc([N+](=O)[O-])c1 (stereo not drawn) [Manidipine HCl (CV-4093)]"
  relative viability, %: 107
- compound: "CCOc1cc2ncc(C#N)c(Nc3ccc(OCc4ccccn4)c(Cl)c3)c2cc1NC(=O)/C=C/CN(C)C"
  relative viability, %: 88.1
- compound: "Nc1nccc(Oc2ccc(NC(=O)c3c[nH]cc(-c4ccc(F)cc4)c3=O)cc2F)c1Cl"
  relative viability, %: 102
- compound: "Cc1cc2c(s1)Nc1ccccc1N=C2N1CCN(C)CC1 [Olanzapine (Zyprexa)]"
  relative viability, %: 108
- compound: "CC1=C(C(=O)Nc2cc3cn[nH]c3cc2F)C(c2ccc(C(F)(F)F)cc2)CC(=O)N1 (stereo not drawn)"
  relative viability, %: 106
- compound: "N[C@@H](CC(=O)N1CCn2c(nnc2C(F)(F)F)C1)Cc1cc(F)c(F)cc1F [Sitagliptin phosphate]"
  relative viability, %: 96.2

Task item: Param readout= relative viability; system= 621-102 (TSC2-deficient); entry= Cc1ccc(C(=O)Nc2cccc(C(F)(F)F)c2)cc1Nc1nc(-c2cccnc2)nc2c1cnn2C ; returns value.
Reply: 99.4

Task item: Missing value: relative viability, 621-102 (TSC2-deficient), entry Cc1ccc(NC(=O)c2cccc(N(C)C)c2)cc1NC(=O)c1ccc(O)cc1 . Fill in?
Reply: 109

Task item: Observed relative viability on 621-102 (TSC2-deficient) for Cc1cc(NS(=O)(=O)c2ccc(N)cc2)no1 , please.
Reply: 102

Task item: Quick check: relative viability on 621-102 (TSC2-deficient), item NC(=O)c1cccc(-c2cccc(OC(=O)NC3CCCCC3)c2)c1 ?
Reply: 99.6

Task item: Query relative viability on 621-102 (TSC2-deficient) for CC(/C=C/C(=O)NO)=C\[C@@H](C)C(=O)c1ccc(N(C)C)cc1
Reply: 110

Task item: Form: Entry = O=C(Nc1c[nH]nc1-c1nc2ccc(CN3CCOCC3)cc2[nH]1)NC1CC1 | System = 621-102 (TSC2-deficient) | relative viability = ____
Reply: 53.1

Task item: Give recorded relative viability with 621-102 (TSC2-deficient) for the following compound: Cc1ccc(NC(=O)c2ccc(CN3CCN(C)CC3)cc2)cc1Nc1nccc(-c2cccnc2)n1 [Imatinib (STI571)]
Reply: 108

Task item: Could you share what relative viability was measured for CN(C)C/C=C/C(=O)Nc1cc2c(Nc3ccc(F)c(Cl)c3)ncnc2cc1O[C@H]1CCOC1 , tested on 621-102 (TSC2-deficient)?
Reply: 91.8

Task item: Provide value of relative viability for this record tested with 621-102 (TSC2-deficient): Nc1ccc(S(N)(=O)=O)cc1 [Sulfanilamide]
Reply: 99.8

The measured values listed here are drawn from the supplement of paper PMC8960247.
